Please go through the items and note down their NF-kB reporter.
tested on: RAW-Dual (murine macrophage reporter line); assay: NF-kB reporter (SEAP) activity fold change vs agonist alone; higher = enhanced NF-kB activity; conditions: modulator concentration 10 µM; agonist: LPS 0.1 ug/mL
Give bare numbers.

The cases that follow already have their NF-kB reporter on record.
CN(C)CCC(c1ccc(Cl)cc1)c1ccccn1.O=C(O)/C=C\C(=O)O (stereo not given): 1.08
CC(C)(C)c1ccc(-c2nc(-c3cccc([N+](=O)[O-])c3)no2)cc1: 0.972
CC(=O)Oc1cc2c(s1)CCN(C(C(=O)C1CC1)c1ccccc1F)C2 (stereo not given): 1.2
O=Cc1ccc(OCc2cccc([N+](=O)[O-])c2)c(Br)c1: 0.737
O=C(O)CCC(=O)O.O=C(O[C@H]1CN2CCC1CC2)N1CCc2ccccc2[C@@H]1c1ccccc1: 0.886
CC1=C(C(=O)OCc2ccc3c(c2)OCO3)C(c2ccc(Cl)c(Cl)c2)NC(=O)N1 (stereo not given): 1.13

Give me NF-kB reporter for each of these compounds, listed below.
1. COc1cc(Br)c(C=C(C#N)c2nn(-c3ccccc3)c(N)c2C#N)cc1OC
2. Cc1cc(Nc2cc(CN3CCOCC3)c3nc(C)c(Cc4ccc(Cl)cc4F)n3n2)[nH]n1
3. COc1ccc(-c2coc3cc(O)ccc3c2=O)cc1
4. C[C@H]1O[C@H]1P(=O)(O)O.NC(CO)(CO)CO

Resp:
[1.09, 1.46, 1.1, 1.05]

State the recorded NF-kB reporter for every item in the following list.
1. CS(=O)(=O)N(CC(=O)Nc1ccccc1Br)c1ccc(Cl)c(C(F)(F)F)c1
2. CN(C)c1ncc(NC(=O)c2ccc(Oc3ncccn3)cc2)c(N(C)C)n1
3. CN1CCC(=C2c3ccccc3C=Cc3ccccc32)CC1 [Prestw-103]
4. O=C(c1ccc(C(F)(F)F)nc1)N1CC(n2cc(C3CC3)nn2)C1
5. CCOc1ccc(CC(=O)NC2(c3nc(-c4ccccc4)no3)CCCCC2)cc1OCC

Resp:
[0.971, 0.953, 0.833, 0.931, 1.02]

---

Please respond with reported NF-kB reporter for every item in the list.
system: RAW-Dual (murine macrophage reporter line); assay: NF-kB reporter (SEAP) activity fold change vs agonist alone; higher = enhanced NF-kB activity; details: modulator concentration 10 µM; agonist: LPS 0.1 ug/mL
Numbers only.

Consider the reported NF-kB reporter for these compounds:
CC(=O)c1cccc(NC(=O)CSc2nnc3c4ccccc4n(C)c3n2)c1: 0.835
CCN1C(=O)CC(NCCc2ccc(S(N)(=O)=O)cc2)C1=O (centres undefined): 1.03
COC(=O)C1=C(C)N(Cc2ccccc2)C(=O)C1: 1.1
CC(=O)C1=C(C)OC2(O)c3ccccc3C(=O)C12O (centres undefined): 0.947
NC[C@@H]1O[C@H](O[C@@H]2[C@@H](CO)OC(O[C@@H]3[C@@H](O)[C@H](N)C[C@H](N)[C@H]3O[C@H]3O[C@H](CN)[C@@H](O)[C@H](O)[C@H]3N)[C@@H]2O)[C@H](N)[C@@H](O)[C@@H]1O.O=S(=O)(O)O (some centres undefined): 1.01

Below is a list of compounds. For each, state its recorded NF-kB reporter.
1. N#Cc1c(N=Cc2ccc(O)cc2)sc2c1CCCC2
2. Cc1c(-c2ccccc2)nc2ccccc2c1C(=O)N1CCCC1
3. CCOCCn1c(N2CCCN(C)CC2)nc2ccccc21

Resp:
0.94
1.13
1.24

---

system: RAW-Dual (murine macrophage reporter line); assay: IRF reporter (Lucia luciferase) activity fold change vs agonist alone; higher = enhanced IRF activity; conditions: modulator concentration 10 µM; agonist: 3'3'-cGAMP 10 ug/mL
Measured Metric: IRF reporter
Give bare numbers.

CC(C)CN(C[C@@H](O)[C@H](Cc1ccccc1)NC(=O)O[C@H]1CO[C@H]2OCC[C@H]21)S(=O)(=O)c1ccc(N)cc1: 0.916
CC(C)(C)NC[C@H](O)COc1nsnc1N1CCOCC1.O=C(O)/C=C\C(=O)O: 0.906
CN1CCN(C2=Nc3cc(Cl)ccc3Nc3ccccc32)CC1: 0.924
COc1ccc(-c2oc(N=Cc3ccccc3O)c(C#N)c2-c2ccc(OC)cc2)cc1: 0.921
CC1=CCCC(=O)C2CC(C)(C)C2CC1 (configuration not stated): 0.876
O=C(NCC1CN(c2ccc(N3CCOCC3=O)cc2)C(=O)O1)c1ccc(Cl)s1 (configuration not stated): 0.898
CCN(CC)c1ccc(C=NNC(=O)c2ccncc2)c(O)c1: 0.888
CN(CCO)c1ccc2nonc2c1[N+](=O)[O-]: 0.886
CC(C)=CCCC(C)=CC=NNC(=S)Nc1ccc(C)cc1: 0.256
Cc1ccc(C(=O)C(C)CN2CCCCC2)cc1.Cl (configuration not stated): 0.895

List the reported IRF reporter of each compound below.
1. Cc1cc(Cl)ccc1OCC(O)CN1CC(C)OC(C)C1.Cl (configuration not stated)
2. O=C(CCCN1CCN(c2ccccn2)CC1)c1ccc(F)cc1
3. COC(=O)c1ccc(-n2nnnc2SCC(=O)Nc2ccc(C)c(C)c2)cc1

Resp:
1. 0.937
2. 0.924
3. 0.849

---

tested on: RAW-Dual (murine macrophage reporter line); assay: NF-kB reporter (SEAP) activity fold change vs agonist alone; higher = enhanced NF-kB activity; settings: modulator concentration 10 µM; agonist: MPLA […]
Kindly supply the reported NF-kB reporter values for the records listed here.
Give bare numbers.

// solved cases for NF-kB reporter follow
COc1ccc(CCNC(=O)NCc2nn(C3CCCC3)c3c2CCCC3)cc1: 1.12
CCCn1c(C(O)(c2ccccc2)c2ccccc2)nc2ccccc21: 0.736
CCCCn1c(CNC(=O)c2cccs2)nc2ccccc21: 1.03

Give NF-kB reporter for each listed item.
1. C/C(O)=C(\C#N)C(=O)Nc1ccc(C(F)(F)F)cc1
2. O=C(COCc1ccccc1)NC1CCC(F)(F)CC1
3. Oc1ccccc1C=NNc1nc(-c2ccccc2)cc(-c2ccccc2)n1
4. COCCN1CCC(NC(=O)c2cccc3ccccc23)CC1
5. COc1ccc(-c2cc3nc(C)cc(NCCN4CCOCC4)n3n2)cc1OC
6. O=c1c(-n2ccnn2)c[nH]n1-c1cc(N2CCOCC2)ncn1
7. CCOc1ccc2c(c1)C(C)=CC(C)(C)N2

Resp:
[1.01, 0.777, 1.03, 0.958, 0.976, 0.853, 1.11]

Need NF-kB reporter for each of these compounds.
1. COC(=O)C1=C(C)NC(C)=C(C(=O)OC)C1c1ccc(-c2ccc(Cl)cc2Cl)o1
2. c1ccc2nc3c(cc(N4CCOCC4)c4ccccc43)nc2c1
3. N#CCCC1(CCC#N)S(=O)(=O)CC(c2ccc(Cl)cc2)CS1(=O)=O
4. CC1C(C#N)=C(N)OC2=C1C(=O)CC(C)(C)C2 (stereo not drawn)
5. CCOc1ccc2c(c1)C(c1ccccc1C(F)(F)F)CC(=O)N2 (stereo not drawn)
6. CCOC(=O)C1=C(C)NC(=S)NC1c1cccc(C)c1 (stereo not drawn)

Resp:
0.922
0.969
0.623
0.96
1.03
1.05

Your task in this section: give NF-kB reporter for each listed record.
1. O=C1CC(c2ccc(O)cc2)Oc2cc(O)cc(O)c21 (stereo not drawn)
2. O=C(CCn1c(=O)oc2ccccc21)Nc1ccccc1
3. Cc1cc(N2CCCCC2)nc2ccccc12
4. Clc1ccc(-c2nc(-c3ccc(I)cc3)[nH]c2-c2ccc(Cl)cc2)cc1
5. O=C(O)CCC(=O)O.O=C(O[C@H]1CN2CCC1CC2)N1CCc2ccccc2[C@@H]1c1ccccc1
6. O=c1n(CCNS(=O)(=O)Cc2ccccc2)nc(C2CC2)n1-c1ccccc1

Resp:
1. 1.21
2. 0.881
3. 0.73
4. 0.985
5. 1.07
6. 1.1

Give NF-kB reporter for each listed item.
1. CNS(=O)(=O)C[C@H]1CC[C@H](N(C)c2ncnc3[nH]ccc23)CC1.O=C(O)/C=C\C(=O)O
2. CCN(CC)c1nc(Nc2ccc([N+](=O)[O-])cc2)nc(N(CC)CC)n1
3. CCN(CCO)CCCC(C)Nc1ccnc2cc(Cl)ccc12.O=S(=O)(O)O (stereo not drawn)
4. Cc1c(-c2ccccc2)nc2ccccc2c1C(=O)N1CCCC1
5. COCCOC(=O)C1=C(C)NC(C)=C(C(=O)OC(C)C)C1c1cccc([N+](=O)[O-])c1 (stereo not drawn)
6. O=C(NCCN1CCN(c2ccc(F)cc2)CC1)c1ccno1
7. CCCCCn1c(=O)[nH]c2cc(C(=O)N3CCN(C(=O)OCC)CC3)ccc2c1=O
8. Cc1cn(-c2cc(NC(=O)c3ccc(C)c(Nc4nccc(-c5cnccn5)n4)c3)cc(C(F)(F)F)c2)cn1

Resp:
1: 0.414; 2: 0.953; 3: 1.44; 4: 1.1; 5: 0.88; 6: 0.991; 7: 1.02; 8: 0.982

# credit: the supplement of paper PMC10646978
